# Test Summary: Half life in human microsomes
# Format: ADME, Microsome

{"Compound": "CCN1C[C@H]2C[C@@H](N(Cc3ccc(F)c(C(F)(F)F)c3)C(=O)c3cn(C)cn3)C[C@H]2C1", "half-life": "> 2 h"}
{"Compound": "COc1ccc(CN(C(=O)c2cn(C)cn2)[C@H]2C[C@H]3CNC[C@H]3C2)cc1OC1CCCC1", "half-life": "> 2 h"}
{"Compound": "CC(C)Oc1cccc(CN(C(=O)c2cn(C)cn2)[C@H]2C[C@H]3CNC[C@H]3C2)c1", "half-life": "> 2 h"}
{"Compound": "Cn1cnc(C(=O)N(Cc2ccc(F)c(C(F)(F)F)c2)[C@H]2C[C@H]3CNC[C@H]3C2)c1", "half-life": "> 2 h"}
{"Compound": "Cn1cnc(C(=O)N(Cc2cccc(OC(F)(F)F)c2)[C@H]2C[C@H]3CNC[C@H]3C2)c1", "half-life": "0.833 h"}
{"Compound": "CN1C[C@H]2C[C@@H](N(Cc3ccc(F)c(C(F)(F)F)c3)C(=O)c3cn(C)cn3)C[C@H]2C1", "half-life": "> 2 h"}
{"Compound": "CN1C[C@H]2C[C@@H](N(Cc3ccc(F)c(OC4CCCC4)c3)C(=O)c3cn(C)cn3)C[C@H]2C1", "half-life": "1.3 h"}
{"Compound": "CC(F)CN1C[C@H]2C[C@@H](N(Cc3cccc(OC(F)(F)F)c3)C(=O)c3cn(C)cn3)C[C@H]2C1 (stereo partly drawn)", "half-life": "< 0.0533 h"}
